Consider compounds characterized by their IC50 with CRTH2 (DP2) (Homo sapiens).
Answer format: numeric, µM implied, no suffix.

Record excerpt, results attached:
INSERT INTO results (input_smiles, study_target, obs_value) VALUES
  ('CCC(=O)N(Cc1cccc(-c2cccnc2)c1)c1cccc(-c2nnn[nH]2)c1', 'CRTH2 (DP2) (Homo sapiens)', 0.403),
  ('CCC(=O)N(Cc1ccc(C(F)(F)F)cc1)c1cc(F)cc(-c2nnn[nH]2)c1', 'CRTH2 (DP2) (Homo sapiens)', 0.0071),
  ('CCCCC(=O)N(Cc1ccc(OC)cc1)c1cccc(-c2nnn[nH]2)c1', 'CRTH2 (DP2) (Homo sapiens)', 0.061);

Next, consider the following compound.
Query: For CCC(=O)N(Cc1ccc(OC(F)(F)F)c(Cl)c1)c1cc(F)cc(-c2nnn[nH]2)c1 , what is its reported IC50?
Reply: 0.024

====

study_target: CRTH2 (Homo sapiens, UniProt Q9Y5Y4)
Construct: expressed in transfected cells; host or cells: CHO cells
Sequence (Q9Y5Y4 1-395): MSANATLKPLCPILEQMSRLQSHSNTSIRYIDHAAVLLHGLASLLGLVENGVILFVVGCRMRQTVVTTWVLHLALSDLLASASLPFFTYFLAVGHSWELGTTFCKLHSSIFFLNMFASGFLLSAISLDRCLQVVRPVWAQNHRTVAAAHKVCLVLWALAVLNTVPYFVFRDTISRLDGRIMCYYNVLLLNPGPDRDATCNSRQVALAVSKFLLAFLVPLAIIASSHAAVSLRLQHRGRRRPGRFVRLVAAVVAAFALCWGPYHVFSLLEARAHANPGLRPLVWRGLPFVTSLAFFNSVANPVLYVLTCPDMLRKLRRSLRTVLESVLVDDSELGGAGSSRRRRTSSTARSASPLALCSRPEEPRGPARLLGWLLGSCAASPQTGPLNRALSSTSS
assay_overview: [35S]GTPγS binding assay on CHO-CRTH2 cell membranes
Assay type: biochemical
run_parameters: without addition of PGD2; 100% of Emax being the activity measured by the addition of 1 μM of PGD2
In this section we review reported Emax values for a set of compounds.
Kindly answer with a numeric value in %, unit omitted.

Some compounds with known Emax results, for comparison:
INSERT INTO assay_data (input_smiles, u, obs_value) VALUES
  ('CCC(=O)N(Cc1cccc(O)c1)c1cc(F)cc(-c2nnn[nH]2)c1', '%', -17.1),
  ('CCC(=O)N(Cc1ccc(S(C)(=O)=O)cc1)c1cc(F)cc(-c2nnn[nH]2)c1', '%', 19),
  ('CCC(=O)N(Cc1ccc(-c2c(C)cccc2C)cc1)c1cc(F)cc(-c2nnn[nH]2)c1', '%', -16.7),
  ('CS(=O)(=O)c1ccc(CN(C(=O)c2ccccc2)c2cc(F)cc(-c3nnn[nH]3)c2)cc1', '%', -10.1),
  ('CCCCC(=O)N(Cc1ccc2c(c1)OCCO2)c1cc(F)cc(-c2nnn[nH]2)c1', '%', -14.9),
  ('CCC(=O)N(Cc1ccc(OC(F)(F)F)c(Cl)c1)c1cc(F)cc(-c2nnn[nH]2)c1', '%', -13),
  ('CCCC(=O)N(Cc1ccc(OC(F)(F)F)cc1)c1cc(Cl)cc(-c2nnn[nH]2)c1', '%', -13.5);

Please look at the following compound next.
Query: Value wanted: Emax (CRTH2 (Homo sapiens, UniProt Q9Y5Y4)) of entry CCCCC(=O)N(Cc1ccc(OC(F)(F)F)c(Cl)c1)c1cc(F)cc(-c2nnn[nH]2)c1
Reply: -12.6

====

Quick reference for melting point among some compounds

Past entries and their recorded results:
INSERT INTO measurements (compound, property_measured, obs_value) VALUES
  ('CCCCC(=O)N(Cc1ccc(OC(F)(F)F)cc1)c1cc(Cl)cc(-c2nnn[nH]2)c1 [Example 40]', 'melting point', '177 to 180 °C'),
  ('CCCCC(=O)N(Cc1ccc(OC)cc1)c1cc(F)cc(-c2nnn[nH]2)c1 [Example 38]', 'melting point', '122 to 125 °C'),
  ('COCCC(=O)N(Cc1ccc(OC(F)(F)F)cc1)c1cc(Cl)cc(-c2nnn[nH]2)c1 [Example 68]', 'melting point', '146 to 151 °C'),
  ('CCCCC(=O)N(Cc1cccc(OC)c1)c1cc(F)cc(-c2nnn[nH]2)c1 [Example 37]', 'melting point', '118 to 120 °C');

Now look at this one.
Query: # lookup: melting point of CCC(=O)N(Cc1ccc(OC)cc1)c1cc(F)cc(-c2nnn[nH]2)c1 [Example 41]
Reply: 158 to 160 °C

====

CRTH2 (DP2) (Homo sapiens, UniProt Q9Y5Y4) measurements of pIC50, listed per entry.
// pIC50: -log10(molar conc.)

# count of solved cases: 2
INSERT INTO measurements (input_smiles, obs_value) VALUES
  ('CCNS(=O)(=O)c1cccc(-c2ccc(CN(C(=O)CC)c3cc(F)cc(-c4nnn[nH]4)c3)cc2)c1', 6.77),
  ('CCC(=O)N(Cc1ccc(-c2cccc(S(=O)(=O)NCCO)c2)cc1)c1cc(F)cc(-c2nnn[nH]2)c1', 6.80);

Next:
Query: Look up pIC50: CCC(=O)N(Cc1ccccc1F)c1cccc(-c2nnn[nH]2)c1
Reply: 5.94

====

Readings of IC50 for the listed compounds
study_target: CRTH2 (DP2) (Homo sapiens)
Construct: host or cells: CHO cells
assay_overview: Radioligand binding Scintillation Proximity Assay ([3H]PGD2, hCRTH2-CHO cell membranes)
run_parameters: 1.5 nM [3H]PGD2, hCRTH2-CHO cell membranes, SPA
Express it in nM; write the number only.

// worked examples, IC50 included
INSERT INTO results (input_smiles, study_target, property_measured, u, obs_value) VALUES
  ('CCC(=O)N(Cc1cccc(OC(F)(F)F)c1)c1cccc(-c2nnn[nH]2)c1', 'CRTH2 (DP2) (Homo sapiens)', 'IC50', 'nM', 245),
  ('CCC(=O)N(Cc1ccc2c(c1)OCO2)c1cccc(-c2nnn[nH]2)c1', 'CRTH2 (DP2) (Homo sapiens)', 'IC50', 'nM', 147);

Query: Give IC50 (CRTH2 (DP2) (Homo sapiens)) of the following compound: CCC(=O)N(Cc1ccc(-c2ccccc2)cc1)c1cccc(-c2nnn[nH]2)c1
Reply: 506
